# test: protein stability index of a GFP-peptide fusion (GPS, HEK-293T) (PSI 1-6); higher = more stable;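 note: 24-mer peptide tiles fused after GFP, lentivirally expressed, FACS-sorted into six equal bins by GFP/DsRed ratio, decoded by Illumina sequencing, PSI is the read-weighted mean bin number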
# settings: treatment: MLN4924 1 uM, 8 h; c terminus: native
Outcome: true for protein stability index of at least 3; false for anything lower.

Look over these answered cases.
seq text | label value
LAVAVPAVTSADSQFSQTTQAGS [LYSMD4] | true
QVPVVDFQAELRQAFLAETPRGG [SNURF] | true
MKSAMRKLWSKKVSLAGKWLYHS [OR4A15] | false
NGSDNLPSSAGSGDKPLSDPAPF [TPD52L2] | true
NLSEFQHVISRSPDFASSFKIVL [CIB1] | false

Exam item: Has SNYYVAHPPVTYSQPYPTWLPCN [TENT5C] a recorded protein stability index greater than or equal to 3?
Marked response: true

Exam item: State whether the measured protein stability index reaches 3, counting equality as reaching it, for VKEKFSPEAFTEQLYRYVTKLLV [ALG2]
Marked response: true

Exam item: Dear colleague, could you confirm whether GGTEEKSSLLMSCLACDTWAVIL [RPAIN] has protein stability index at or above 3?
Marked response: false

Exam item: Textbook exercise: given the entry PPTLQEAGLSHTEVLFVQDLTDE [FAF2] , state whether its protein stability index is greater than or equal to 3.
Marked response: true

Exam item: Quick check, protein stability index >= 3? FDPKTKRILTLQKANSWFNCRKN [MMP1]
Marked response: false

###

# test: protein stability index of a GFP-peptide fusion (GPS, HEK-293T) (PSI 1-6); higher = more stable
# settings: treatment: DMSO; c terminus: a fixed tail appended
Provide the reported protein stability index of each item.

Some entries whose results are on file:
seq text | protein stability index
QFFTKGYQETISDVLNDAIFDEDH [GCH1] | 4.01
LAALSATISFRIYKSVLQAVQKTD [RTN1] | 2.53
IAELLEVFDLRMMVANILNNEAFM [RHOBTB2] | 3.36
ALVVALWGPLQDSLEHTLRVAIAH [TSPAN10] | 2.89
VSSLSEVEEVDMAEEFEQPTLSCE [ELOA2] | 5.57

Would you mind listing protein stability index for each of the following sequences?
1. LEQRSESVRRTRSKIGFGILLSKE [SMAD6]
2. ADGRIEPGDMLLQVNEINFENMSN [DVL3]
3. GEKPYKCTHCSKSFRQRAGLIMHQ [ZNF449]
4. RRCGELKRKLGLTALVGLRQNLSK [TPD52L3]
5. SQRQAKELKLEQQEAAERESKLLR [LRRC45]
6. TNRVKECLAKGTFSDVTFILDDGT [RHOBTB2]
7. PESQMCRKFSRECEDQKQIKKPES [NEUROD6]
8. GRLSMAAADIVNFLTVGSVLQMWH [ZBTB22]

Marked response:
1. 3.51
2. 3.95
3. 3.59
4. 2.41
5. 5.17
6. 3.52
7. 5.09
8. 3.33

###

# test: protein stability index of a GFP-peptide fusion (GPS, HEK-293T) (PSI 1-6); higher = more stable
# settings: treatment: MLN4924 1 uM, 8 h; c terminus: a fixed tail appended
quantity measured: protein stability index

seq text | protein stability index
DEPQETAYRTQVSSCCLHICQGIR [PKD2L1] | 3.1

Could you report protein stability index for every entry in the following list?
1. TAAGGQGGPGGPGSDKQQQQQHIE [NR2F2]
2. APDEKRSNVRWDHESVCKYYLCGF [LUC7L3]

Marked response:
1: 5.47; 2: 2.41

Here are 2 sequences. What values of protein stability index were reported for them?
1. TSPECASPQFEGPLSPPPINYNGI [NEUROD6]
2. ALSPSATAKRINRTSLSSGATVRS [CDC14A]

Marked response:
1: 3.91; 2: 4.16

Please give protein stability index for each item listed below.
1. NMQQPMNVMTQSFGAVNLSSPSNM [CLINT1]
2. TVDSMIPAYATTRIRSQIGNTESE [GDAP1]
3. VLFSVAGGLFVGKEGPMIHSGSVV [CLCN6]
4. GGPPAGPGGVYAGPEPPPVYTNLS [JUNB]
5. AISITAIAKYSDGASKAAGVFGFF [CMTM3]
6. IQQTTRYFSTPQTMDLFLNYSMNM [NANOGP8]

Marked response:
[3.66, 4.99, 2.74, 4.56, 2.78, 2.58]
